We begin with a simple list: items and their reported TGI.
System: MOLT-4 leukemia
Assay: NCI tumour cell line growth inhibition, 48 h
measured.metric: TGI

compound | study.target | measured.metric | assay.value
COc1cc(S(=O)(=O)Nc2nc(-c3ccc(N4C(=O)/C(=C\c5cccs5)N=C4c4ccccc4)cc3)cs2)ccc1Cl | MOLT-4 leukemia | TGI | > 100 µM
C=[CH][Sn]([CH]=C)([S]c1cccc2cccnc12)[S]c1cccc2cccnc12 | MOLT-4 leukemia | TGI | 0.967 µM
COC(=O)C(Cc1ccc(OC)cc1O)NC(=O)OC(C)(C)C (stereo unspecified) | MOLT-4 leukemia | TGI | > 100 µM
O=c1ccccc(-c2ccc(Br)cc2)c1O | MOLT-4 leukemia | TGI | > 100 µM
CCNc1cnc2c(n1)c(=O)n(C)c(=O)n2C | MOLT-4 leukemia | TGI | > 100 µM
Nc1ncnc2c1ncn2C1CC(O)C(CO)O1 (stereo unspecified) | MOLT-4 leukemia | TGI | > 100 µM

---

System: DMS 114 small cell lung
Assay: NCI tumour cell line growth inhibition, 48 h

compound | study.target | TGI
CN1CCCC2[C@@H]3CCC4=C(O)C(=O)CC[C@]4(C)C3CC[C@@]21C (stereo not given in full) | DMS 114 small cell lung | > 100 µM
CC(C)NC(C)C(C)c1ccccc1 (stereo not given) | DMS 114 small cell lung | > 100 µM
COC(=O)C1=C(C=O)C2C=CC1C2 (stereo not given) | DMS 114 small cell lung | > 84.6 µM
CCOC(OC1=C(C#N)CCC1)C(C)[Se]c1ccccc1 (stereo not given) | DMS 114 small cell lung | 14.2 µM
N#CNCC(COCc1ccccc1)c1ccccc1 (stereo not given) | DMS 114 small cell lung | > 100 µM
C/C(CC(=O)Nc1ccc(Cl)c(Cl)c1)=N/NC(=O)C[N+](C)(C)C | DMS 114 small cell lung | 55.6 µM
Cc1ccc(S(=O)(=O)C(CC(NC=O)S(=O)(=O)c2ccc(C)cc2)NC=O)cc1 (stereo not given) | DMS 114 small cell lung | > 100 µM
CN(C)CCONC(=O)C12CC3CC(CC(C3)C1)C2 | DMS 114 small cell lung | > 100 µM
O=[N+]([O-])c1nccn1COCCO | DMS 114 small cell lung | > 100 µM
CSc1cc(-c2cc3ccccc3o2)oc(=O)c1C#N | DMS 114 small cell lung | > 100 µM
COc1ccc(/C=C2\CCC(CN3CCOCC3)C2=O)cc1 (stereo not given) | DMS 114 small cell lung | 7.09 µM
COc1ccc(-c2nc(Sc3c([N+](=O)[O-])ncn3C)n[nH]2)cc1 | DMS 114 small cell lung | 6.64 µM
CC(=O)Nc1ccc(-c2nnc(SCC(=O)Nc3ccc(Cl)cc3Cl)o2)cc1 | DMS 114 small cell lung | 38.7 µM
COc1ccc(/C=C/C(=O)c2sc(NC(=S)NC(=O)c3ccc(Cl)cc3)nc2C)cc1OC | DMS 114 small cell lung | > 100 µM
CC(C)N(C(C)C)[PH+]1O[PH+](N(C(C)C)C(C)C)O[PH+](N(C(C)C)C(C)C)O[PH+](N(C(C)C)C(C)C)O1.[C-]#[O+].[C-]#[O+].[C-]#[O+].[C-]#[O+].[C-]#[O+].[C-]#[O+].[C-]#[O+].[C-]#[O+].[Mo].[Mo] (stereo not given) | DMS 114 small cell lung | > 100 µM

---

We begin with a simple list: items and their reported log10(TGI).
Test system: NCI-H226 lung
Assay: NCI tumour cell line growth inhibition, 48 h
measured.metric: log10(TGI) (log10 of the value in µM)

compound | assay.value
O=C(CN(/C=C/C(=O)C(F)(F)F)c1ccc(Cl)cc1)c1ccc(F)cc1 | 1.49
Cc1cc(N(CCC#N)CCC#N)ccc1/C=N/NC(=O)c1ccccc1 | 1.92
Cc1cc(=O)n2nnc3c4ccccc4ccc3n12 | 1.43
CCN(CC)CC(O)CNc1c2ccc(Cl)cc2nc2ccc(OC)cc12 (stereo unspecified) | 0.48
c1ccc2nc(N/N=C3\CCCCC3C3CCCCC3)ccc2c1 (stereo unspecified) | 1.36
C=CCCCCNC(=O)C[C@@H]1C2=C(CC[C@H]1O[Si](C)(C)C(C)(C)C)N1C(=O)CCC/C=C\C1C2 (stereo partly specified) | 1.48
COc1ccc(-c2nc(Sc3c([N+](=O)[O-])ncn3C)n[nH]2)cc1 | 1.58
COC1=CC(=O)c2c(cc(COP(N)(=O)N(CCBr)CCBr)n2C)C1=O (stereo unspecified) | 0.07
Nc1nc(Cl)c(N=Nc2ccc(Cl)cc2)c(NCC2(CO)CCC(CCc3ccccc3)C2)n1 (stereo unspecified) | 1.29
COc1cc(C2Oc3cc(-c4oc5cc(O)cc(O)c5c(=O)c4O)ccc3OC2CO)ccc1O (stereo unspecified) | 1.91
COc1cc2c3c(n(CCCNC4=NCCS4)c(=O)c2cc1OC)-c1cc2c(cc1C3=O)OCO2 | -0.04
Cn1ccc2c1SSSSS2 | 1.71
C#CC[C@@H]1C[C@]2(C)[C@H]3CC[C@@H]4[C@H]5C(C(=C)C)CC[C@]5(C(=O)NCCCCN)CC[C@@]4(C)[C@]3(C)CC[C@H]2C(C)(C)[C@H]1OC(C)=O (stereo partly specified) | 0.68
COc1cc2c(cc1OCCCN1CCN(C)CC1)N=C[C@@H]1CCCN1C2=O | 0.66
O=C(Cc1ccc(F)cc1)NC1=C(Cl)C(=O)c2ccccc2C1=O | 1.10
Cc1nc2cc(-c3nn(C(C)C)c4ncnc(N)c34)ccc2o1 | -0.72
COC(=O)/C=C1/SC(=Nc2ccc(F)cc2)N(CCc2c[nH]c3ccc(O)cc23)C1=O | 1.68
COc1ccc(/C=C/C2C(C#N)=C(N)OC3=C2C(=O)CCC3)cc1 (stereo unspecified) | 1.53
Clc1ccc(Cn2c(CN3CCCC3)nc3ccccc32)cc1 | 1.62
CCOC(OC1=C(C#N)CCC1)C(C)[Se]c1ccccc1 (stereo unspecified) | 1.71
COc1ccc2c(c1OC)-c1c(c3ccc([N+](=O)[O-])cc3c(=O)n1CCCN)C2=O | 0.94

---

Tested on: K-562 leukemia
Assay: NCI tumour cell line growth inhibition, 48 h

compound | GI50
COc1cc(OC)c(/C=C/c2cc[n+](C)c3ccccc23)c(OC)c1 | 1000 nM
COc1cc2c3c(n(CCCNC4=NCCS4)c(=O)c2cc1OC)-c1cc2c(cc1C3=O)OCO2 | < 10 nM
Cc1nc2cc(-c3nn(C(C)C)c4ncnc(N)c34)ccc2o1 | 28.8 nM
C=[CH][Sn]([CH]=C)([S]c1cccc2cccnc12)[S]c1cccc2cccnc12 | 234 nM
COc1ccc(/C=C2\COc3ccc(O)c(O)c3C2=O)cc1 | 330 nM
CCN(CC)CC(O)CNc1c2ccc(Cl)cc2nc2ccc(OC)cc12 (stereo not given) | 312 nM
S=C(S)N1CCCCC1 | > 406000 nM
Cn1ccc2c1SSSSS2 | 23200 nM
c1ccc(CC(Cc2ccccc2)C2=NCCCN2)cc1 | 4040 nM
COc1ccc(C(=S)N(C)NC(=O)CC(=O)NN(C)C(=S)c2ccc(OC)cc2)cc1 | 59400 nM

---

System: OVCAR-5 ovarian
Assay: NCI tumour cell line growth inhibition, 48 h
We begin with a simple list: items and their reported TGI.

molecule | TGI
O=C(c1ccccc1)c1ccc2cccc(OC3OC(CO)C(O)C(O)C3O)c2n1 (stereo not given) | > 100 µM
Clc1ccccc1/C=C/c1ccnc2ccccc12 | 34.5 µM
NC(Cc1ccccc1)P(=O)(O)O (stereo not given) | > 100 µM
CC(=O)Nc1ccc(-c2nnc(SCC(=O)Nc3ccc(Cl)cc3Cl)o2)cc1 | > 100 µM
Fc1cccc(C2SCC3=Nc4ccccc4CN32)c1 (stereo not given) | > 100 µM
O=C1Nc2c(Cl)cc(Cl)cc2C1=O | 40.7 µM
CSc1nc(NC2OC(COC(C)=O)C(OC(C)=O)C(OC(C)=O)C2OC(C)=O)c(N=CC=Nc2c(NC3OC(COC(C)=O)C(OC(C)=O)C(OC(C)=O)C3OC(C)=O)nc(SC)[nH]c2=O)c(=O)[nH]1 (stereo not given) | > 100 µM
CCCCCCN1CCc2c(C)c(C#N)c3nc4ccccc4n3c21 | > 100 µM
CCn1c2ccccc2c2cc(N=Nc3ccc(C#N)cc3)ccc21 | > 100 µM
COc1ccc(C(NS(=O)(=O)c2ccc(C)cc2)c2c(C(CBr)OC)c3ccccc3n2S(=O)(=O)c2ccccc2)cc1OC (stereo not given) | > 100 µM

---

Test system: UACC-62 melanoma
Experiment: NCI tumour cell line growth inhibition, 48 h

compound | study.target | TGI
Nn1c(SCC(=O)O)nc2ccccc2c1=O | UACC-62 melanoma | > 100 µM
COC(=O)C(Cc1ccc(OC)cc1O)NC(=O)OC(C)(C)C (configuration not stated) | UACC-62 melanoma | > 100 µM
CCCCCCCCCCCCCC(=O)NCO | UACC-62 melanoma | > 100 µM
CC(=O)N/C=C/c1cc(O)ccc1O | UACC-62 melanoma | 47.1 µM
O=C(Nc1ccc(Cl)cc1)Nc1ccc(Cl)c(C(F)(F)F)c1 | UACC-62 melanoma | 14.7 µM
Cc1cc(=O)[nH]c(S(=O)(=O)NC(=S)Nc2ccc(Cl)cc2)n1 | UACC-62 melanoma | > 100 µM
[2H]c1nc(C)nc([2H])c1-c1cc(NC[C@@H](C)c2cccc3c(C(=O)NC)ccnc23)ncn1 | UACC-62 melanoma | > 100 µM
O=[N+]([O-])/C(C(Cl)=C(Cl)Cl)=C(/Br)SCc1ccccc1 | UACC-62 melanoma | 16.1 µM
O=C1OCCC1(Cc1ccc(Cl)cc1)Cc1ccc(Cl)cc1 | UACC-62 melanoma | > 100 µM
Cc1c(C(=O)O)n2c(C)nnc2c2ccccc12 | UACC-62 melanoma | > 100 µM
Cn1cc(-c2csc(-c3c[nH]c4ccccc34)n2)c2cnccc21 | UACC-62 melanoma | 3.32 µM
CC(=O)N1CCC(Nc2ncc3cc(Oc4ccc(F)cc4F)c(=O)n(C)c3n2)CC1 | UACC-62 melanoma | > 25 µM
Clc1c2ncccc2cc2n[nH]nc12 | UACC-62 melanoma | > 100 µM
COC(=O)[C@@]12CN(C)[C@@H](C(C)(C)C)N1C(=O)OC2c1ccccc1 (some centres not stated) | UACC-62 melanoma | > 100 µM
C#CC[C@@H]1C[C@]2(C)[C@H]3CC[C@@H]4[C@H]5C(C(=C)C)CC[C@]5(C(=O)NCCCCN)CC[C@@]4(C)[C@]3(C)CC[C@H]2C(C)(C)[C@H]1OC(C)=O (some centres not stated) | UACC-62 melanoma | 3.26 µM
N#CC(C#N)=Cc1c[nH]c(=O)[nH]c1=O | UACC-62 melanoma | > 100 µM
CC(=O)OC1C[C@@H](C)C2(CC(c3ccoc3)OC2=O)C2CCC(O)C3(CO3)C12CO (some centres not stated) | UACC-62 melanoma | > 100 µM
CCOC(OC1=C(C#N)CCC1)C(C)[Se]c1ccccc1 (configuration not stated) | UACC-62 melanoma | 43.9 µM
Cc1ccc(C2=NN(c3ccc(S(C)(=O)=O)cc3)C(=O)CC2)cc1 | UACC-62 melanoma | > 100 µM
O=C(Cc1ccc(F)cc1)NC1=C(Cl)C(=O)c2ccccc2C1=O | UACC-62 melanoma | 9.87 µM
COc1ccc(C2C=C(c3ccc(OC)c(OC)c3)N=C3SC=CN32)c(Br)c1 (configuration not stated) | UACC-62 melanoma | 7.06 µM
COc1cc2nn(-c3ccccc3)nc2c2nonc12 | UACC-62 melanoma | > 100 µM
